# Tgt: T1, EsCas13d, nuclease-dead (Eubacterium siraeum, UniProt B0MS50, R295A;H300A;R849A;H854A)
# T1 sequence: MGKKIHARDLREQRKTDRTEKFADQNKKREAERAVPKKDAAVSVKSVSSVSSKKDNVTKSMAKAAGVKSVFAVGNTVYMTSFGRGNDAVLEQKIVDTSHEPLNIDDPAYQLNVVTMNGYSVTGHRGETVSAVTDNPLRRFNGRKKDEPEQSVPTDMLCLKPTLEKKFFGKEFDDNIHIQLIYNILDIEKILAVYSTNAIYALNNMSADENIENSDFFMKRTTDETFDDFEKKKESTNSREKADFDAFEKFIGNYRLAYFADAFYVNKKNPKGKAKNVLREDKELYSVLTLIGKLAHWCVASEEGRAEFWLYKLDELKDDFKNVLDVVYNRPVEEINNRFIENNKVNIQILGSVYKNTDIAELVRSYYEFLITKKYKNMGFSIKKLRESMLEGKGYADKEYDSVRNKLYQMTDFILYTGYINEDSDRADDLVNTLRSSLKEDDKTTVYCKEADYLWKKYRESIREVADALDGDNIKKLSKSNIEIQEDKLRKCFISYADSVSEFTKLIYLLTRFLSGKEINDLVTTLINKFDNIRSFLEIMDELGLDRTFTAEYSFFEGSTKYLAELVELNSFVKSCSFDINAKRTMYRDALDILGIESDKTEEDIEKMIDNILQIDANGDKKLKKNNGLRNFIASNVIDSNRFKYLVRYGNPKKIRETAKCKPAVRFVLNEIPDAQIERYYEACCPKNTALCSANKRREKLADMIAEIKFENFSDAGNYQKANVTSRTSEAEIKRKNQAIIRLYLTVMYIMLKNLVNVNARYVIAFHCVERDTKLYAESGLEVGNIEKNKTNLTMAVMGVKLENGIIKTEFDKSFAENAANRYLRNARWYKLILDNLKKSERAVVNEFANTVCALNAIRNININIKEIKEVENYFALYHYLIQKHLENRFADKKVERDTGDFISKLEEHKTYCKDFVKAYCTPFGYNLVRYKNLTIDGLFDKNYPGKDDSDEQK
# Method Summary: crRNA (strand 1, pre-loaded); Mg2+; 40 mM Tris-HCl pH 7.5, 150 mM NaCl, 6 mM MgCl2, 1 mM DTT, 0.1% Tween-20, 0.2 mg/ml BSA; 25 C; 10 min per concentration, then washed
# Assay Context: tags: His6-TwinStrep-SUMO cleaved; N-terminal SNAP kept (SNAP-Surface 488); label: 3' end held by stalled T7 RNA polymerase
Assay Metric: Kd (nM)

[[record]]
binder = "target 1 U11A,A20C (mixed) RNA 1: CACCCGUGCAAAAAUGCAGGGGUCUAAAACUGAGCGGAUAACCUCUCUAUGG RNA 2: GGGAAUGGAUCCACAUCUACGAAUUCGUACCCUAGAGAGGAUAUCCGCUCACCGAGAUCGGAAGAGCACACGU"
assay_metric = "Kd"
value_observed = 80

[[record]]
binder = "target 1 insA 3' of 13,insG 3' of 10 (mixed) RNA 1: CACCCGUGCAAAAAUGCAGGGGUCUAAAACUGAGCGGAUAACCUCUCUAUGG RNA 2: GGGAAUGGAUCCACAUCUACGAAUUCGUACCAUAGAGAGAGUUGAUCCGCUCACCGAGAUCGGAAGAGCACACGU"
assay_metric = "Kd"
value_observed = 7.2

[[record]]
binder = "target 2 MT 5'PFS CUU 3'PFS ACC (mixed) RNA 1: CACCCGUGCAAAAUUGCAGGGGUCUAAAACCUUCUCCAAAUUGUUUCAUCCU RNA 2: GGGAAUGGAUCCACAUCUACGAAUUCCUUAGGAUGAAACAAUUUGGAGAAGACCAGAUCGGAAGAGCACACGU"
assay_metric = "Kd"
value_observed = 10.5

[[record]]
binder = "target 1 G15C,C21U (mixed) RNA 1: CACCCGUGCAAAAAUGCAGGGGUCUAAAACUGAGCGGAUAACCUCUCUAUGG RNA 2: GGGAAUGGAUCCACAUCUACGAAUUCGUACUAUAGACAGGUUAUCCGCUCACCGAGAUCGGAAGAGCACACGU"
assay_metric = "Kd"
value_observed = 9.4

[[record]]
binder = "target 3 C1U,A5G (mixed) RNA 1: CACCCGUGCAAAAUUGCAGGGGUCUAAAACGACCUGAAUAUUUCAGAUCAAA RNA 2: GGGAAUGGAUCCACAUCUACGAAUUCGUUUUUGAUCUGAAAUAUUCGGGUUUGCAGAUCGGAAGAGCACACGU"
assay_metric = "Kd"
value_observed = 20.6

[[record]]
binder = "target 1 U3G,G17C (mixed) RNA 1: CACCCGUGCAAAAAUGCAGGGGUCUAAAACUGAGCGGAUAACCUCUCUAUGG RNA 2: GGGAAUGGAUCCACAUCUACGAAUUCGUACCAUACAGAGGUUAUCCGCGCACCGAGAUCGGAAGAGCACACGU"
assay_metric = "Kd"
value_observed = 36.7

[[record]]
binder = "target 2 MT 5'PFS UUG 3'PFS UGC (mixed) RNA 1: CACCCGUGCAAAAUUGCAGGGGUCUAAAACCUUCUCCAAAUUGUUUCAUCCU RNA 2: GGGAAUGGAUCCACAUCUACGAAUUCUUGAGGAUGAAACAAUUUGGAGAAGUGCAGAUCGGAAGAGCACACGU"
assay_metric = "Kd"
value_observed = 14.1

[[record]]
binder = "target 2 MT 5'PFS GAC 3'PFS UUG (mixed) RNA 1: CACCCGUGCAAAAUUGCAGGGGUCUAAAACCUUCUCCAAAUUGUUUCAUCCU RNA 2: GGGAAUGGAUCCACAUCUACGAAUUCGACAGGAUGAAACAAUUUGGAGAAGUUGAGAUCGGAAGAGCACACGU"
assay_metric = "Kd"
value_observed = 15

[[record]]
binder = "target 3 MT (mixed) RNA 1: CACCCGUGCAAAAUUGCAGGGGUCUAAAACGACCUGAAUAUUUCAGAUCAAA RNA 2: GGGAAUGGAUCCACAUCUACGAAUUCGUUUUUGAUCUGAAAUAUUCAGGUCUGCAGAUCGGAAGAGCACACGU"
assay_metric = "Kd"
value_observed = 15.6

